test system: SK-MEL-5; assay: NCI tumour cell line growth inhibition, 48 h
Calls of active or inactive are those of the source. Rule as the data show it: active = GI50 up to about 1.1 µM and inactive = higher.
Classes used: 1 (active), 0 (inactive)

INSERT INTO measurements (molecule, assigned_class) VALUES
  ('O=C1NC2OC(CO)C(O)C(O1)C2O (stereo unspecified)', 0),
  ('O=C1/C(=C/c2ccc(Cl)cc2)CSC/C1=C\c1ccc(Cl)cc1', 0),
  ('CN(C)C1C(O)=C(C(=O)NCN2CCCC2)C(=O)C2(O)C(O)=C3C(=O)c4c(O)cccc4C(C)(O)C3CC12 (stereo unspecified)', 0),
  ('COC(=O)[C@@H]1C(=O)O[C@@H](c2cc(OC)c(OC)cc2OC)[C@@H]1C(=O)OC.COC(=O)[C@H]1C(=O)O[C@@H](c2cc(OC)c(OC)cc2OC)[C@@H]1C(=O)OC', 0),
  ('CCCC(=O)Nc1cc(/C=C/C(=O)N2C[C@@H]3C[C@]34C2=CC(=O)c2[nH]cc(C)c24)n(C)c1', 1),
  ('COc1ccc(C(c2ccccc2C(=O)O)c2ccc(OC)c3ccccc23)c2ccccc12', 0),
  ('CC(=O)c1ccc(-c2ccc(C(C)=O)s2)s1', 0),
  ('Cc1cc(=O)oc2c(C)c3oc(CBr)cc3cc12', 0),
  ('Cc1nc2c(o1)C(=O)c1ccccc1/C2=N/C1CCCCC1N (stereo unspecified)', 1),
  ('O=C1/C(=C\Oc2ccc(F)cc2)N2CCC1CC2', 0),
  ('CN(C)CCNc1nc2ccccc2c2c1C(=O)c1ccccc1-2', 1);

----------
test system: UACC-62; assay: NCI tumour cell line growth inhibition, 48 h
Calls of active or inactive are those of the source. No stated cut-off is given here; in the data, active = GI50 up to about 1.1 µM and inactive = higher.
Quantity kind: GI50

INSERT INTO assay_data (compound, quantity_kind, endpoint_result) VALUES
  ('COC(=O)C1=Nc2c(C)nn(-c3ccccc3)c2N=C(c2ccccc2)C1', 'GI50', '> 10 µM (inactive)'),
  ('c1ccc2c(c1)Cc1c(Cc3csc4ccccc34)ccc3cccc-2c13', 'GI50', '> 100 µM (inactive)'),
  ('COc1ccc(C(=O)/C=C/c2ccc(OCCCCCCCCCCOc3ccc(/C=C/C(=O)c4ccc(OC)cc4)cc3)cc2)cc1', 'GI50', '> 100 µM (inactive)'),
  ('O=C1CCCCC/C1=C\c1ccc([N+](=O)[O-])cc1', 'GI50', '27.8 µM (inactive)'),
  ('Cc1c(Cl)cccc1NC(=O)/C(Cl)=C(\Cl)C(=O)O', 'GI50', '13.2 µM (inactive)'),
  ('CS(=O)(=O)CS(=O)(=O)OCCCl', 'GI50', '29.5 µM (inactive)'),
  ('N#CC(c1ccccc1)N1CCCN(C(C#N)c2ccccc2)C1c1ccccc1O (stereo not drawn)', 'GI50', '> 100 µM (inactive)'),
  ('CN(C)c1ccc(/C=c2/c3ccccc3n3c2cc(NC(=O)NCCC[N+](C)(C)C)[n+]3C)cc1', 'GI50', '> 100 µM (inactive)'),
  ('Cc1c(C2Cc3ccccc3N2)c2ccccc2n1C (stereo not drawn)', 'GI50', '> 100 µM (inactive)'),
  ('CCCc1n[nH]c(CCC(=O)N(Cc2ccccc2)Cc2ccccc2)c1CC', 'GI50', '> 100 µM (inactive)'),
  ('O=C(CCCCCCCCC(=O)OCC1OC(n2cnc3c(=O)[nH]cnc32)C(O)C1O)OCC1OC(n2cnc3c(=O)[nH]cnc32)C(O)C1O (stereo not drawn)', 'GI50', '> 100 µM (inactive)'),
  ('O=C1c2ccccc2-c2nnc3c(c21)-c1ccccc1C3', 'GI50', '37.6 µM (inactive)'),
  ('Cc1ccc(S(=O)(=O)NC(CCC(=O)NNc2ccccc2)C(=O)NNc2ccccc2)cc1 (stereo not drawn)', 'GI50', '2.87 µM (inactive)');
